Source listed as patent US12692310B2.

- STUDY_SYSTEM: truncated hASIC1a (amino acids 13-464) (human) (UniProt P78348)
- METHOD_SUMMARY: Octet, scFv format at 500 nM, ΔhASIC1a nanodiscs
REPORTED_PROPERTY: Response
Answers are plain numbers.

Worked set:
[[record]]
binder = "ASC04 (scFv, V domains shown, also called ASC04 scFv; ASC04 (scFv format)) VH: QVQLVQSGAEVKKPGSSVKVSCKASGGTFSTYAINWVRQAPGQGLEWMGWMNPNSGNTGYAQKFQGRVTMTRNTSISTAYMELSSLRSEDTAVYYCARYSYGMDVWGQGTTVTVSS VL: QAVLTQPSSLSASPGASVSLTCTLRSGINVGAYRIYWYQQKPGSPPQFLLRYKSDSDKQQGSGVPSRFSGSRDASANAGILLISGLRSEDEADYYCAIWHSSAWVFGGGTKLTVLG"
result = 0.995

[[record]]
binder = "ASC06 (scFv, V domains shown) VH: QVQLQQSGGGLVQPGGSLRLSCAASGFTFSSYAMSWVRQAPGKGLEWVSAISGSGGSTYYADSVKGRFTISRDNSKNTLYLQMNSLRAEDTAVYYCAKDSFYGYSKGDWGQGTLVTVSS VL: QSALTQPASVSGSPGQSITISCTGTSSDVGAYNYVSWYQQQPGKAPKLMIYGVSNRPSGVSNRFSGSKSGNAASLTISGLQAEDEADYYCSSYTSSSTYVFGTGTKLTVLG"
result = 0.571


Now let's try a different one.
// query Entry ASC02 (scFv, V domains shown, also called ASC02 scFv; ASC02 (scFv format)) VH: QVQLVQSGAEVKKPGASMKVSCTTSGYTVTGYYIHWLRQAPGQGFEWMGWINPNLGVTNYAQKFQGRVSMTRDPSIKTAYLELSGLRSDDTAMYYCARASTGGIFYDYWGQGTLVTVSS VL: NFMLTQPHSMSESPGKTVTISCTRSSGNIASNYVQWYQQRPGSSPTTVIYDDNQRPSGVPDRFSGSIDSISNSASLTISGLKTEDEADYYCQSYDSSSVIFGGGTKLTVLG : reported Response = ?
// result 0.289
